Cited source for all entries: paper PMC9482650

# studySystem: T1, LNX2_4, Q8N448
# T1 sequence (Q8N448 595-690, limits assumed, looked up): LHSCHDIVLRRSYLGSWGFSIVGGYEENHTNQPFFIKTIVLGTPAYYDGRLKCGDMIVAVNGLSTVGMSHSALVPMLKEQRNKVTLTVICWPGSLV
# assayNotes: holdup assay
# Parameters: key: below the threshold = too weak to quantify, mostly under pKd 3.1 to 4
# details: plain residues with an end cap or a label only (N-terminal biotin on a linker: ttds)
reportedEndpoint: pKd

Worked cases, pKd given:
Query: Look up pKd for this binder: PSRDRKETSI [RALBP1, Q15311]
Reply: below the threshold

Query: Entry to check: KLVIKTETTV [RASSF6, Q6ZTQ3]
Reply: below the threshold

Query: Entry to check: SHSSKGETAV [FZD7, O75084]
Reply: below the threshold

Query: Entry to check: PPRQRSETQV [HPV82-E6, Q9IR59]
Reply: below the threshold

Query: Entry to check: SRSRRRETAL [HPV33-E6, P06427]
Reply: below the threshold

***
Query: Look up pKd for this binder: SSIDLWETAL [SLC15A5, A6NIM6]
Reply: 5.03
